Where these numbers come from: patent US20090317414A1

Target Or System: soluble H-2K^b (soluble extracellular domains); heavy chain residues 1-274 with C-terminal His-tag and … (mouse)
Assay Text: inhibition assay with soluble H-2K^b, 23° C.
Outcome Measure: Kd (nM)
One number for each entry, in nM.

Previously resolved entries follow.
SAPDFRPL (Synthetic peptide) [MUC1-8-5F8L (SAPDFRPL)] :: 60
SAPDTRPA (Synthetic peptide, purity >95%; also called MUC1-8 peptide; parent non-canonical peptide MUC1-8) [MUC1-8 (SAPDTRPA)] :: 877
SAPDFRPA (Synthetic peptide) [MUC1-8-5F (SAPDFRPA)] :: 130
SAPDTRPL (Synthetic peptide) [MUC1-8-8L (SAPDTRPL)] :: 250

Kindly review the next binder as well.
Any idea what Kd was measured for SIINFEKL [OVA8 (SIINFEKL), Chicken ovalbumin257-264] ?
10
